# credit: patent US20120172285A1

experimentalTarget: T1, recombinant human MCL-1ΔNΔC (amino acids 172-320) (human, UniProt Q07820 172-320)
T1 construct: also called rMCL-1; MCL-1NC
T1 sequence (Q07820 172-320 limits assumed, stated change not applied): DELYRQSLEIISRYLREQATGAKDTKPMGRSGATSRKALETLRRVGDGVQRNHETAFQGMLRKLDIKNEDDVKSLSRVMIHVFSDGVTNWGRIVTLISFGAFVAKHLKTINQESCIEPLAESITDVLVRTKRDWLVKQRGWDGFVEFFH
assayRemarks: fluorescence polarization (FPA), FITC-SAHB, dilution series of MCL-1ΔNΔC [middle panel]
pKd: −log10 of the molar value. Bridges are numbered along the chain shown (N, C = ends). Where no end group is shown, it is not given here. [ ]: non-standard residue; d: D form. The star is where a group is joined. FITC = O=C1OC2(c3ccc(O)cc3Oc3cc(O)ccc32)c2ccc(NC(=S)*)cc21; S5 = C=CCCC[C@](C)(N)C(=O)O; Nle = CCCC[C@H](N)C(=O)O
Below, each entry is listed with its recorded pKd.
recordedMetric: pKd

>>> testvalue("{FITC}-QVGRQLA[S5]IGD[S5]INRRYD (staple 8-12, also called FITC-BAK SAHB; BAK BH3 helix) [BAK SAHB]")
8.15
>>> testvalue("{FITC}-RLAEVSAVLL[S5]LGD[S5]LE[Nle]IR (staple 11-15) [BOK SAHB]")
6.94
>>> testvalue("{FITC}-ASTKKLSESLK[S5]IGD[S5]LDSN (staple 12-16, domain: BH3) [BAX SAHB]")
7.00
